Data origin, for the record: patent US10765114B2

Measured GR80, ECHSS of individual entries
# Test system: ECHSS: including barnyardgrass, (Echinochloa crus-galli), junglerice, (Echinochloa colonum)
# assay.remarks: Postemergence Herbicidal Activity in Direct Seeded Rice
# Type: in vivo
# reported.conditions: Growth reduction of 80% of plant growth, probit analysis
Value expressed in g ai/ha; do not type the unit.

Known results for molecules:
| molecule | unit.descriptor | GR80, ECHSS |
| --- | --- | --- |
| COC(=O)c1nc(-c2ccc(C(F)(F)F)nc2)c(C)c(N)c1Cl [Compound 32] | g ai/ha | 35 |
| COC(=O)c1nc(-c2ccc(C(F)(F)F)nc2)c(Cl)c(N)c1Cl [Compound 83] | g ai/ha | 9 |
| COC(=O)c1nc(-c2ccc(C(F)(F)F)nc2)c(F)c(N)c1Cl [Compound 59] | g ai/ha | 15 |

Input line: May I ask what GR80, ECHSS has been recorded for Nc1c(Cl)c(C(=O)O)nc(-c2ccc(C(F)(F)F)nc2)c1Cl [Compound 33] ?
Output line: 1

====

Measured pest or weed control at 70 g/ha of individual entries
# Tested on: Key Broadleaf Weed and Crop Species
# assay.remarks: Post-Emergent Test II (Table 5)
# Type: in vivo
# reported.conditions: Helianthus annuus, post-emergence, 336 h, HELAN: sunflower (Helianthus annuus), application rate 70 (kg ai/ha; footnote: g ai/ha), read-out: Visual Growth Reduction (%) 14 Days After Application HELAN

Known results for compounds:
| smiles.entry | pest or weed control at 70 g/ha |
| --- | --- |
| COC(=O)c1nc(-c2ccc(Cl)c(F)c2OC)c(F)c(N)c1Cl | 95 to 100% |
| Nc1c(F)c(-c2ccc(C(F)F)nc2)nc(C(=O)O)c1Cl | 95 to 100% |
| COC(=O)c1nc(-c2ccc(OC)nc2)c(F)c(N)c1Cl | 95 to 100% |
| COC(=O)c1nc(-c2ccc(Cl)c(F)c2C)nc(N)c1Cl | 85 to 94% |
| COC(=O)c1nc(-c2ccc(C)nc2F)c(F)c(N)c1Cl | 85 to 94% |

Input line: May I ask what pest or weed control at 70 g/ha has been recorded for Cc1ccc(-c2nc(C(=O)O)c(Cl)c(N)c2F)cn1 ?
Output line: 30 to 44%

Input line: May I ask what pest or weed control at 70 g/ha has been recorded for COC(=O)c1nc(-c2ccc(Cl)c(F)c2CO)cc(N)c1Cl ?
Output line: 0 to 29%

Input line: May I ask what pest or weed control at 70 g/ha has been recorded for Nc1c(Cl)c(C(=O)O)nc(-c2ccc(C(F)(F)F)nc2)c1Cl ?
Output line: 85 to 94%

Input line: May I ask what pest or weed control at 70 g/ha has been recorded for COC(=O)c1nc(-c2ccc(Cl)c(F)c2C(F)F)cc(N)c1Cl ?
Output line: 60 to 74%

====

# Tested on: LEFSS: sprangletop including Chinese sprangletop (Leptochloa chinensis), green sprangletop (Leptochloa dubia)
# assay.remarks: Postemergence Herbicidal Activity in Direct Seeded Rice
# Format: in vivo
# reported.conditions: Growth reduction of 80% of plant growth, probit analysis
Measured GR80, LEFSS of individual entries
Value expressed in g ai/ha; do not type the unit.

Input line: May I ask what GR80, LEFSS has been recorded for Nc1c(Cl)c(C(=O)O)nc(-c2ccc(C(F)(F)F)nc2)c1Cl ?
Output line: 77
